# testSystem: hNurr1_RXRγFL (NURR1/RXRγ heterodimer) (Homo sapiens, UniProt P43354+P48443)
# Sequence (P43354 328-598): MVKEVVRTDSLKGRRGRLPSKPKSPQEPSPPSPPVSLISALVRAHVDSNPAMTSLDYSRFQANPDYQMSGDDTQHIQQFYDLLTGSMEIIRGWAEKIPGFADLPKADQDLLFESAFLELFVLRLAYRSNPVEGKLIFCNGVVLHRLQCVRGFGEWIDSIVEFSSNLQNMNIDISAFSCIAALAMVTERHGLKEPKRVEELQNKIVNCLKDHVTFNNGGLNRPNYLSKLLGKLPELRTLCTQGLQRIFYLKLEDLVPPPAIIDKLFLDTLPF
# Sequence (P48443 whole entry, the tested form may be a part): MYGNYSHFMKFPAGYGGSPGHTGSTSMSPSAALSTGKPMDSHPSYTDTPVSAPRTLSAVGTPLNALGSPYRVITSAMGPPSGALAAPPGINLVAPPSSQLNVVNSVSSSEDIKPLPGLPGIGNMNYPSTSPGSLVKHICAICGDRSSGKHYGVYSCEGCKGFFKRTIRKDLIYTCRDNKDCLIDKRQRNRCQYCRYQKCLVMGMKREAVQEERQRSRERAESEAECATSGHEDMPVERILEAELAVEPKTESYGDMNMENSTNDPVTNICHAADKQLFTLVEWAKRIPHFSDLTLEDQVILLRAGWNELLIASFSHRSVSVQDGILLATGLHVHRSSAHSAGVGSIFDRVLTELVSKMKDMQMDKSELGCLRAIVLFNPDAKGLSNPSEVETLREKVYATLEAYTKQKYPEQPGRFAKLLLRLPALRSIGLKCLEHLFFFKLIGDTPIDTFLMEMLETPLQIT
# experimentNotes: Transactivation assay in Cos-7 cells, NURR-1-Gal4 / RXRγ, luciferase reporter
# details: Cos-7 cells, overnight incubation
# EC50 values compiled below
Give a bare numeral; the unit µM is implied.

>  <structureString>
CC(C)(C)c1ccc(S(=O)(=O)n2c(Cc3ccc(C(=O)O)cc3)cc3cc(C(F)(F)F)ccc32)cc1

>  <readingUnit>
µM

>  <EC50>
0.24

$$$$

In: Using hNurr1_RXRγFL (NURR1/RXRγ heterodimer) (Homo sapiens, UniProt P43354+P48443) as the test system, report measured EC50 of Cc1c(Cc2ccc(C(=O)O)s2)n(S(=O)(=O)c2cccc(C(C)(C)C)c2)c2ccc(C(F)(F)F)cc12 .
Out: 0.115

In: Using hNurr1_RXRγFL (NURR1/RXRγ heterodimer) (Homo sapiens, UniProt P43354+P48443) as the test system, report measured EC50 of O=C(O)c1ccc(Cc2cc3cc(C(F)(F)F)ccc3n2S(=O)(=O)c2ccc(F)cc2)cc1 .
Out: 0.73

* * *

# testSystem: hNurr1_RXRαFL (NURR1/RXRα heterodimer) (Homo sapiens, UniProt P19793+P43354)
# Sequence (P19793 whole entry, the tested form may be a part): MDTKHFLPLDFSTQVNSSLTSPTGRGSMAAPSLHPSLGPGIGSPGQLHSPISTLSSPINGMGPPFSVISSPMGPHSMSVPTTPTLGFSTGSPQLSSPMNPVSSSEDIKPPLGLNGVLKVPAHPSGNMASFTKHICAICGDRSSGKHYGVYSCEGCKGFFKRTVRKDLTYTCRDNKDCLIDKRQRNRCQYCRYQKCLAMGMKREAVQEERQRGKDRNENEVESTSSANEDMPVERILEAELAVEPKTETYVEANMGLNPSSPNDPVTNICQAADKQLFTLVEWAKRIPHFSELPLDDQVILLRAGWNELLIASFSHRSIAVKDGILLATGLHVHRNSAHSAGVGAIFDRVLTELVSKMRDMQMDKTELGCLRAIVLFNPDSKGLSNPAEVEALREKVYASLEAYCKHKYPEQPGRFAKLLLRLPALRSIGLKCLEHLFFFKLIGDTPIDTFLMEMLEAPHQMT
# Sequence (P43354 328-598): as the sequence (P43354 328-598) above
# experimentNotes: Transactivation assay in Cos-7 cells, NURR-1-Gal4 / RXRα, luciferase reporter
# details: Cos-7 cells, overnight incubation
quantityKind: EC50 (nM)
Give a bare numeral; the unit nM is implied.

Example cases with answers are listed next.
>  <structureString>
O=C(O)c1ccc(Cc2cc3cc(Cl)ccc3n2S(=O)(=O)c2cccc(F)c2)cc1

>  <testSystem>
hNurr1_RXRαFL (NURR1/RXRα heterodimer) (Homo sapiens, UniProt P19793+P43354)

>  <readingUnit>
nM

>  <EC50>
472

$$$$
>  <structureString>
COc1cccc(S(=O)(=O)n2c(Cc3ccc(C(=O)O)cc3)cc3cc(Cl)ccc32)c1

>  <testSystem>
hNurr1_RXRαFL (NURR1/RXRα heterodimer) (Homo sapiens, UniProt P19793+P43354)

>  <readingUnit>
nM

>  <EC50>
681

$$$$
>  <structureString>
CN1CCOc2ccc(S(=O)(=O)n3c(Cc4cc(C(=O)O)co4)cc4cc(C(F)(F)F)ccc43)cc21

>  <testSystem>
hNurr1_RXRαFL (NURR1/RXRα heterodimer) (Homo sapiens, UniProt P19793+P43354)

>  <readingUnit>
nM

>  <EC50>
63

$$$$

Read the next record carefully.
In: Supply measured EC50 of O=C(O)c1cc(Cc2cc3cc(Cl)ccc3n2S(=O)(=O)c2ccc3c(c2)OCCO3)cs1 in your reply.
Out: 331

* * *

quantityKind: melting point (°C)
Give a bare numeral; the unit °C is implied.

>  <structureString>
Cc1c(Cc2ccc(C(=O)O)s2)n(S(=O)(=O)c2cccc(C(C)(C)C)c2)c2ccc(C(F)(F)F)cc12

>  <measured>
171

$$$$
>  <structureString>
CC(C)(C)c1cccc(S(=O)(=O)n2c(Cc3ccc(C(=O)O)c(O)c3)cc3cc(C(F)(F)F)ccc32)c1

>  <measured>
129

$$$$

In: Supply measured melting point of CC(C)(C)c1cccc(S(=O)(=O)n2c(Cc3ccc(C(=O)O)cc3F)cc3cc(C(F)(F)F)ccc32)c1 in your reply.
Out: 177

In: Supply measured melting point of CC(C)c1ccc(S(=O)(=O)n2c(Cc3ccc(C(=O)O)c(F)c3)cc3cc(C(F)(F)F)ccc32)cc1 in your reply.
Out: 197

* * *

# testSystem: hNurr1_RXRγFL (NURR1/RXRγ heterodimer) (Homo sapiens, UniProt P43354+P48443)
# experimentNotes: Transactivation assay in Cos-7 cells, NURR-1-Gal4 / RXRγ, luciferase reporter
# Assay type: cell-based
# details: COS-7, read-out: hNurr1_RXRγFL Eff (%), efficacy in % relative to the reference XCT0135908 at 2·10^−5 M (=100%)
# Experimental: First, the capacity of the compounds according to the invention for acting as an activator of the heterodimers formed by the NURR-1 nuclear receptor and the RXR nuclear receptors was measured by an in vitro assay. A transactivation assay was used as a primary screening assay. […] After 24 hours, the culture medium was changed. […] After overnight incubation, luciferase expression was measured after addition of “SteadyGlo” according to the manufacturer's instructions (Promega). […]
# Emax values compiled below
Give a bare numeral; the unit % is implied.

Example cases with answers are listed next.
>  <structureString>
CC(C)(C)c1cccc(S(=O)(=O)n2c(Cc3ccc(C(=O)O)c(O)c3)cc3cc(C(F)(F)F)ccc32)c1

>  <testSystem>
hNurr1_RXRγFL (NURR1/RXRγ heterodimer) (Homo sapiens, UniProt P43354+P48443)

>  <readingUnit>
%

>  <Emax>
51

$$$$
>  <structureString>
O=C(O)c1ccc(Cc2cc3cc(Cl)ccc3n2S(=O)(=O)c2ccc3c(c2)OCCCO3)cc1

>  <testSystem>
hNurr1_RXRγFL (NURR1/RXRγ heterodimer) (Homo sapiens, UniProt P43354+P48443)

>  <readingUnit>
%

>  <Emax>
36

$$$$
>  <structureString>
Cc1c(Cc2cccc(C(=O)O)c2)n(S(=O)(=O)c2cccc(C(C)(C)C)c2)c2ccc(C(F)(F)F)cc12

>  <testSystem>
hNurr1_RXRγFL (NURR1/RXRγ heterodimer) (Homo sapiens, UniProt P43354+P48443)

>  <readingUnit>
%

>  <Emax>
68

$$$$

Read the next record carefully.
In: Using hNurr1_RXRγFL (NURR1/RXRγ heterodimer) (Homo sapiens, UniProt P43354+P48443) as the test system, report measured Emax of Cc1ccc(S(=O)(=O)n2c(Cc3ccc(C(=O)O)cc3)cc3cc(C(F)(F)F)ccc32)cc1 .
Out: 36

* * *

# testSystem: hNurr1_RXRγFL (NURR1/RXRγ heterodimer) (Homo sapiens, UniProt P43354+P48443)
# experimentNotes: Transactivation assay in Cos-7 cells, NURR-1-Gal4 / RXRγ, luciferase reporter
# details: Cos-7 cells, overnight incubation
quantityKind: EC50 (nM)
Give a bare numeral; the unit nM is implied.

Example cases with answers are listed next.
>  <structureString>
COc1cccc(S(=O)(=O)n2c(Cc3ccc(C(=O)O)cc3)cc3cc(Cl)ccc32)c1

>  <EC50 / nM>
1070

$$$$
>  <structureString>
CN1CCOc2ccc(S(=O)(=O)n3c(Cc4ccc(C(=O)O)s4)cc4cc(C(F)(F)F)ccc43)cc21

>  <EC50 / nM>
66

$$$$
>  <structureString>
COC(=O)c1ccc(Cc2cc3cccc(F)c3n2S(=O)(=O)c2cccc(C(C)(C)C)c2)cc1

>  <EC50 / nM>
1860

$$$$

In: Supply measured EC50 of CC(C)(C)c1cccc(S(=O)(=O)n2c(Cc3cncc(C(=O)O)c3)cc3cc(C(F)(F)F)ccc32)c1 in your reply.
Out: 195

In: Supply measured EC50 of CC(C)(C)c1cccc(S(=O)(=O)n2c(Cc3ccc(C(=O)O)cc3)cc3cc(C(F)(F)F)ccc32)c1 in your reply.
Out: 110

In: Supply measured EC50 of COC(=O)c1ccc(Cc2cc3cc(C(C)(C)C)ccc3n2S(=O)(=O)c2cccc(C(C)(C)C)c2)cc1 in your reply.
Out: 646

* * *

# testSystem: hNurr1_RXRαFL (NURR1/RXRα heterodimer) (Homo sapiens, UniProt P19793+P43354)
# experimentNotes: Transactivation assay in Cos-7 cells, NURR-1-Gal4 / RXRα, luciferase reporter
# details: Cos-7 cells, overnight incubation
quantityKind: EC50 (nM)
Give a bare numeral; the unit nM is implied.

Example cases with answers are listed next.
>  <structureString>
CC(C)c1ccc(S(=O)(=O)n2c(Cc3ccc(C(=O)O)c(O)c3)cc3cc(C(F)(F)F)ccc32)cc1

>  <readingUnit>
nM

>  <EC50>
343

$$$$
>  <structureString>
CC(C)(C)c1cccc(S(=O)(=O)n2c(Cc3cncc(C(=O)O)c3)cc3cc(C(F)(F)F)ccc32)c1

>  <readingUnit>
nM

>  <EC50>
107

$$$$
>  <structureString>
CC(C)(C)c1cccc(S(=O)(=O)n2c(Cc3ccc(C(=O)O)cc3)cc3c(Cl)c(Cl)ccc32)c1

>  <readingUnit>
nM

>  <EC50>
65

$$$$
>  <structureString>
CC1(C)COc2ccc(S(=O)(=O)n3c(Cc4ccc(C(=O)O)cc4)cc4cc(Cl)ccc43)cc21

>  <readingUnit>
nM

>  <EC50>
47

$$$$
>  <structureString>
O=C(O)c1ccc(Cc2cc3cc(C(F)(F)F)ccc3n2S(=O)(=O)c2cccc(OC(F)(F)F)c2)cc1

>  <readingUnit>
nM

>  <EC50>
359

$$$$

Read the next record carefully.
In: Supply measured EC50 of Cc1ccc2c(c1)cc(Cc1ccc(C(=O)O)cc1)n2S(=O)(=O)c1cccc(C(C)(C)C)c1 in your reply.
Out: 279
